Biological target: NS3h WT (T7 Shuffle) (dengue virus 4, UniProt P09866 1646-2092)
Sequence (P09866 1646-2092): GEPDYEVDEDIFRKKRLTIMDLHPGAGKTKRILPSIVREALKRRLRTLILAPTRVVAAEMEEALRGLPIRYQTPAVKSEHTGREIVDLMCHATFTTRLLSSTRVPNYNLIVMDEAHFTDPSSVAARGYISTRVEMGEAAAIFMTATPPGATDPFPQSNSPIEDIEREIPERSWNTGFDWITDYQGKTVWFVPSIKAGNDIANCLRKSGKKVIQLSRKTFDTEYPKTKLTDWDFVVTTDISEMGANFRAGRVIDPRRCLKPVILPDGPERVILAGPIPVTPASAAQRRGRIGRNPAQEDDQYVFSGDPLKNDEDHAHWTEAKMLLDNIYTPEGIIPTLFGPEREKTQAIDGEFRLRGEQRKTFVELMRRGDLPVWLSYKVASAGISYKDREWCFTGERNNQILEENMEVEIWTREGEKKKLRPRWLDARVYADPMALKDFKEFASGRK
Test: fluorescence polarization
readout kind: pKd
Answer as the number alone; pKd is minus log10 of concentration in mol/L.

The recorded pKd for entry AGUAA (ssRNA, 5'-diphosphate (pp (so in the source))) [ppAGUAA Alexa-488 RNA oligo] equals 5.35
